B1: library; numbered along this chain (parent)
chain: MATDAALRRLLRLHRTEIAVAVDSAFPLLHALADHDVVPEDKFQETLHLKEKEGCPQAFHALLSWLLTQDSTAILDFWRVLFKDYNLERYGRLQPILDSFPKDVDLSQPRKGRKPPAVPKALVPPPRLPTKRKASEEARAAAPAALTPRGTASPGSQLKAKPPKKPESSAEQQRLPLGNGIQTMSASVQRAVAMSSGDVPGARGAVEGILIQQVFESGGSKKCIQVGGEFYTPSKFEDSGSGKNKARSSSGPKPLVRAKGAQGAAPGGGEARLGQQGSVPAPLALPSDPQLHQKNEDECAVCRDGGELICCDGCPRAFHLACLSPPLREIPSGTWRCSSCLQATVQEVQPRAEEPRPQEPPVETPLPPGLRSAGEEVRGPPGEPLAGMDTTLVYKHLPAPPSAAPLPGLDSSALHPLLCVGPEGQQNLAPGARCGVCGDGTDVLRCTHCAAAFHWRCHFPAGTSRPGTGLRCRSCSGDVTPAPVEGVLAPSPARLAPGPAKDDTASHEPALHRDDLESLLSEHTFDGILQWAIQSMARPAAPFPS

Variants of: B1
protocol.description: AIRE transcriptional activation functional score (insulin promoter-GFP; nonsense median 0, synonymous median 1) (normalised score); higher = higher AIRE activity (more reporter activation)
run.parameters: with insulin promoter-GFP reporter in HEK293
Recorded AIRE transcriptional activation functional score for the following variants
Output: the number by itself.

Would you please look over these solved cases?
[[record]]
variant_code = "P331S"
value_reported = 0.73

[[record]]
variant_code = "H507P"
value_reported = 1.02


**Query** Retrieve AIRE transcriptional activation functional score measured for R139G and print it.
**Result** 1.2

**Query** Retrieve AIRE transcriptional activation functional score measured for T441P and print it.
**Result** 1.13

**Query** Retrieve AIRE transcriptional activation functional score measured for L49R and print it.
**Result** 1.04

**Query** Retrieve AIRE transcriptional activation functional score measured for P384T and print it.
**Result** 1.17

**Query** Retrieve AIRE transcriptional activation functional score measured for S24K and print it.
**Result** 1.61

**Query** Retrieve AIRE transcriptional activation functional score measured for E17K and print it.
**Result** 0.389

**Query** Retrieve AIRE transcriptional activation functional score measured for G431Q and print it.
**Result** 0.86

**Query** Retrieve AIRE transcriptional activation functional score measured for G268H and print it.
**Result** 0.564
